Target: Tyrosinase (Homo sapiens) (UniProt P14679)
Sequence (P14679 whole entry): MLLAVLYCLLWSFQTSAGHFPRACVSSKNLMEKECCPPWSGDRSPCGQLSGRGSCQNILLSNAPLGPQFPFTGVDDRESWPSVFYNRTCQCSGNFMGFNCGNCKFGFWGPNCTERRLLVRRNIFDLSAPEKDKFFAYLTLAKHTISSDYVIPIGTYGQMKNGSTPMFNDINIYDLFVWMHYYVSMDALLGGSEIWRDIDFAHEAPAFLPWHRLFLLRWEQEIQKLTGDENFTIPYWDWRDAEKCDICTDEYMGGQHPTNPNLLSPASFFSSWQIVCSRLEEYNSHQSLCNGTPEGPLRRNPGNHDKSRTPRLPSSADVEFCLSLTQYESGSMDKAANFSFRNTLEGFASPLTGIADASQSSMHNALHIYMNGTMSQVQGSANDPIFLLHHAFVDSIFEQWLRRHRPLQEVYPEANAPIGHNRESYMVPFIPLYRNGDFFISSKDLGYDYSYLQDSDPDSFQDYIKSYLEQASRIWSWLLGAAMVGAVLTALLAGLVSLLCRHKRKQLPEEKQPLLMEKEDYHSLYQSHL
Test: Inhibition of tyrosinase at 333 uM
measurement.name: inhibition (%)

CC(C)(O)CCc1c(O[C@@H]2O[C@H](CO)[C@@H](O)[C@H](O)[C@H]2O)cc(O)c2c(=O)c(O)c(-c3ccc(O)cc3)oc12 [AMURENSIN]	15.4
CC[C@H](CC[C@@H](C)[C@H]1CC[C@H]2[C@@H]3CC=C4C[C@@H](O)CC[C@]4(C)[C@H]3CC[C@]12C)C(C)C	14.3
C=C(C)[C@@H]1CC[C@]2(C)CC[C@]3(C)[C@H](CC[C@@H]4[C@@]5(C)CCC(=O)C(C)(C)[C@@H]5CC[C@]43C)[C@@H]12	-2.4
CC1(C)O[C@H]2CC(=O)OC[C@]23[C@H]2CC[C@@]4(C)[C@H](c5ccoc5)OC(=O)[C@H]5O[C@]54[C@]2(C)C(=O)C[C@@H]13	3.6
